B1: F-box-like/WD repeat-containing protein TBL1X (Homo sapiens), O60907-2 (parent)
chain: MSITSDEVNFLVYRYLQESGFSHSAFTFGIESHISQSNINGTLVPPAALISILQKGLQYVEAEISINEDGTVFDGRPIESLSLIDAVMPDVVQTRQQAFREKLAQQQASAAAAAAAATAAATAATTTSAGVSHQNPSKNREATVNGEENRAHSVNNHAKPMEIDGEVEIPSSKATVLRGHESEVFICAWNPVSDLLASGSGDSTARIWNLNENSNGGSTQLVLRHCIREGGHDVPSNKDVTSLDWNTNGTLLATGSYDGFARIWTEDGNLASTLGQHKGPIFALKWNRKGNYILSAGVDKTTIIWDAHTGEAKQQFPFHSAPALDVDWQNNTTFASCSTDMCIHVCRLGCDRPVKTFQGHTNEVNAIKWDPSGMLLASCSDDMTLKIWSMKQEVCIHDLQAHNKEIYTIKWSPTGPATSNPNSNIMLASASFDSTVRLWDIERGVCTHTLTKHQEPVYSVAFSPDGKYLASGSFDKCVHIWNTQSGNLVHSYRGTGGIFEVCWNARGDKVGASASDGSVCVLDLRK

Variants of: B1
Conditions: with ncor2_human NCOR2, Q9Y618
Sequence (Q9Y618 whole entry): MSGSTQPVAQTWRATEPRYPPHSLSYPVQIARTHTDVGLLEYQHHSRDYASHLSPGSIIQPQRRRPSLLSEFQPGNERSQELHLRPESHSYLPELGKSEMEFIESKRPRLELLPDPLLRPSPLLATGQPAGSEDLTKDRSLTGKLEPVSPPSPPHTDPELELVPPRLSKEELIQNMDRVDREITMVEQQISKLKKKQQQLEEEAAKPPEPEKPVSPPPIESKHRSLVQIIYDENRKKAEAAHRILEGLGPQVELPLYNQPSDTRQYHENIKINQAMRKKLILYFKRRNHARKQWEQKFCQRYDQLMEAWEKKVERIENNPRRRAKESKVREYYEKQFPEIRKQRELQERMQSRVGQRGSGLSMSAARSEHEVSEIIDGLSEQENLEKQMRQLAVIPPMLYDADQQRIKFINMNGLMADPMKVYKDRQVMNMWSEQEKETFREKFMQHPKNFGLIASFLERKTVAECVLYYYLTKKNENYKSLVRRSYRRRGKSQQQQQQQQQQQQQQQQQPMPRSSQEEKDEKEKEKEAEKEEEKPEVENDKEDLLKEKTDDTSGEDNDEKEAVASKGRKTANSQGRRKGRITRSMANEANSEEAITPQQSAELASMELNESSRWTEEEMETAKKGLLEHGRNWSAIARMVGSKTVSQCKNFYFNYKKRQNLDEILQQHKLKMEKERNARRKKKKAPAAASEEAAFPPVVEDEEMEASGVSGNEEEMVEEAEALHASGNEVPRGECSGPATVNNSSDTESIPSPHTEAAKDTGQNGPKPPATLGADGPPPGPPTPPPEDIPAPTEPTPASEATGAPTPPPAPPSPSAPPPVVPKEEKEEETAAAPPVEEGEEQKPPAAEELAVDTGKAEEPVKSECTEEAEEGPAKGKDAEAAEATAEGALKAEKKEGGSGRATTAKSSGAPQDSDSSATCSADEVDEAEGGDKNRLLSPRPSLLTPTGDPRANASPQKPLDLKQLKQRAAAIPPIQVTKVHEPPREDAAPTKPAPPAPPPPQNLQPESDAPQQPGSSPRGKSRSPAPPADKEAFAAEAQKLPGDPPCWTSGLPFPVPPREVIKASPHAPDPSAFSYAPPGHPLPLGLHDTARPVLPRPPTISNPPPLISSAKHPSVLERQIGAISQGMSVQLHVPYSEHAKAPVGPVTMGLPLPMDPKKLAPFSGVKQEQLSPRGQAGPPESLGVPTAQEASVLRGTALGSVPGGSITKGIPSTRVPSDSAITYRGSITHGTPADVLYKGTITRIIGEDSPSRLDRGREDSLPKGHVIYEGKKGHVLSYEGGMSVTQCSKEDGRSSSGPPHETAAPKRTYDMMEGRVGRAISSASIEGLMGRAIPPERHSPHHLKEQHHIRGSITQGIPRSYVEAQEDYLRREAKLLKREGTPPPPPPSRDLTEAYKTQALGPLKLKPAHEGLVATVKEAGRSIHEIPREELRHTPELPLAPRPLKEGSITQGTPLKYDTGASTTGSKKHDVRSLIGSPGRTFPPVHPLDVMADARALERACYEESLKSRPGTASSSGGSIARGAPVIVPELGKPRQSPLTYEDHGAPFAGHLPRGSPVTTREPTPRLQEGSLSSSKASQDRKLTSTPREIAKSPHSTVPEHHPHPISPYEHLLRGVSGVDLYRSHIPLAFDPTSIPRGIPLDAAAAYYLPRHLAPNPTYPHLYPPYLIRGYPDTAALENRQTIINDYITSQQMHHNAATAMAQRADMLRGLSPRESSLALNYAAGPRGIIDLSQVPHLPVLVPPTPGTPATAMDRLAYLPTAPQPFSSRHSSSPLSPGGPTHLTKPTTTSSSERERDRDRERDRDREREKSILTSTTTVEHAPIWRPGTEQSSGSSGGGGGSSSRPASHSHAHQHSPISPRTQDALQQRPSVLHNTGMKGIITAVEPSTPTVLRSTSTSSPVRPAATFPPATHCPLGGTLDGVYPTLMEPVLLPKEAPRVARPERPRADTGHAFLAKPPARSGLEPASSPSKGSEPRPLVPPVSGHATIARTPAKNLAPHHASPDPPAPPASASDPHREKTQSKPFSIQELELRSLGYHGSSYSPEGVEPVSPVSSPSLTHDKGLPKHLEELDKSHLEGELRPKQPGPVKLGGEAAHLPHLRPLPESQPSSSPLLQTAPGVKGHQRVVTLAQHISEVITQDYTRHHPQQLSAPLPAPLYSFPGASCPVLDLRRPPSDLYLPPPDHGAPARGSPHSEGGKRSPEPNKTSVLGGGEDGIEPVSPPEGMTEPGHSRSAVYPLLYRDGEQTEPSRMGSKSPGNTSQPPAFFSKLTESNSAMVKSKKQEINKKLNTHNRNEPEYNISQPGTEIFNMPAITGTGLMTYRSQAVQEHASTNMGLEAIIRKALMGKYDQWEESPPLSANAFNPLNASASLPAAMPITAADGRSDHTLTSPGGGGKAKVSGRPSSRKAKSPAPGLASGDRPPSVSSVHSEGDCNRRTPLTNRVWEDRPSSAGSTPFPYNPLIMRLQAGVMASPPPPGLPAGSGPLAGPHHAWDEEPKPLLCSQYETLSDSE
metric-name: effect of a mutation on the interaction

* P45G | decreasing interaction
* I39A | decreasing interaction

Origin of measurements: IntAct's records for PubMed 21240272
